Measured values drawn from patent US4226863A for this set.

// each record: one item and its MIC for Escherichia coli NIHJ
Answers are plain numbers, in µg/mL.

CO[C@@]1(NC(=O)C(NC(=O)c2cnc3nc(N4CCCC4)cnc3c2O)c2ccc(O)cc2)C(=O)N2C(C(=O)O)=C(CSc3n[nH]c(=S)s3)CS[C@@H]21 (stereo partly drawn) :: 6.25

Look at each compound and report its MIC.
1. CO[C@@]1(NC(=O)[C@H](NC(=O)c2cnc3cccnc3c2O)c2ccc(O)cc2)C(=O)N2C(C(=O)O)=C(CSc3cnn[nH]3)CS[C@@H]21
2. CO[C@@]1(NC(=O)[C@H](NC(=O)c2cnc3cccnc3c2O)c2ccccc2)C(=O)N2C(C(=O)O)=C(COC(C)=O)CS[C@@H]21
3. COC1(NC(=O)C(NC(=O)c2nnc(O)nc2O)c2ccc(O)cc2)C(=O)N2C(C(=O)O)=C(CSc3nnnn3C)CSC21 (stereo not drawn)

3.13
3.13
12.5

Look at each compound and report its MIC.
1. COC1(NC(=O)C(NC(=O)c2nnc(SC)nc2O)c2ccccc2)C(=O)N2C(C(=O)O)=C(COC(N)=O)CSC21 (stereo not drawn)
2. COC1(NC(=O)C(NC(=O)c2cnc3cccnc3c2O)c2ccco2)C(=O)N2C(C(=O)O)=C(CSc3nnnn3C)CSC21 (stereo not drawn)
3. COC1(NC(=O)C(NC(=O)c2cnccc2O)c2cccc(O)c2)C(=O)N2C(C(=O)O)=C(CSc3nnc(CO)s3)CSC21 (stereo not drawn)
4. CCN(CC)c1ccc2ncc(C(=O)NC(C(=O)N[C@]3(OC)C(=O)N4C(C(=O)O)=C(CSc5cnn[nH]5)CS[C@@H]43)c3ccc(O)cc3)c(O)c2n1 (stereo partly drawn)
5. CO[C@@]1(NC(=O)[C@H](NC(=O)c2cnc3cccnc3c2O)c2ccc(O)cc2)C(=O)N2C(C(=O)O)=C(COC(N)=O)CS[C@@H]21
6. CO[C@@]1(NC(=O)C(NC(=O)c2cnc3nc(SC)ncc3c2O)c2ccc(O)cc2)C(=O)N2C(C(=O)O)=C(CSc3ccc(O)nn3)CS[C@@H]21 (stereo partly drawn)
7. CO[C@@]1(NC(=O)C(NC(=O)c2ccnnc2O)c2ccc(O)cc2)C(=O)N2C(C(=O)O)=C(CSc3nnc(C)s3)CS[C@@H]21 (stereo partly drawn)
8. CO[C@@]1(NC(=O)C(NC(=O)c2cnc3nc(C)ccc3c2O)c2ccc(O)cc2)C(=O)N2C(C(=O)O)=C(COC(C)=O)CS[C@@H]21 (stereo partly drawn)

25
1.56
12.5
3.13
3.13
6.25
12.5
12.5

Look at each compound and report its MIC.
1. CO[C@@]1(NC(=O)C(NC(=O)c2ccnnc2O)c2ccc(O)cc2)C(=O)N2C(C(=O)O)=C(CSc3n[nH]c(=S)s3)CS[C@@H]21 (stereo partly drawn)
2. CO[C@@]1(NC(=O)C(NC(=O)c2ncccc2O)c2ccccc2)C(=O)N2C(C(=O)[O-])=C(C[n+]3ccc(C(N)=O)cc3)CS[C@@H]21 (stereo partly drawn)
3. COC1(NC(=O)C(NC(=O)c2cnccc2O)c2ccc(O)c(O)c2)C(=O)N2C(C(=O)O)=C(COC(N)=O)CSC21 (stereo not drawn)
4. CO[C@@]1(NC(=O)C(NC(=O)c2ccnnc2O)c2ccc(O)cc2)C(=O)N2C(C(=O)O)=C(CSc3nnnn3C)CS[C@@H]21 (stereo partly drawn)
5. CO[C@@]1(NC(=O)[C@H](NC(=O)c2cnc3cccnc3c2O)c2ccc(O)cc2)C(=O)N2C(C(=O)O)=C(CSc3nnnn3C)CS[C@@H]21
6. COC1(NC(=O)C(NC(=O)c2cnc3cccnc3c2O)C2=CCCCC2)C(=O)N2C(C(=O)O)=C(COC(C)=O)CSC21 (stereo not drawn)

12.5
12.5
12.5
12.5
0.78
3.13

* * *

system: Pseudomonas aeruginosa IID 5142; test: antimicrobial activity, minimum inhibitory concentration, Pseudomonas aeruginosa IID 5142; format: cell-based; settings: IID5142
MEASURED_ATTRIBUTE: MIC
Answer format: number, then unit.

COc1cnc2c(O)c(C(=O)NC(C(=O)N[C@]3(OC)C(=O)N4C(C(=O)O)=C(CSc5nnnn5C)CS[C@@H]43)c3ccc(O)cc3)cnc2n1 (stereo partly shown) [Example 17] :: 3.13 µg/mL
COC1(NC(=O)C(NC(=O)c2cnccc2O)c2ccc(O)c(F)c2)C(=O)N2C(C(=O)O)=C(CSc3nnnn3C)CSC21 (stereo not shown) [Example 41] :: 6.25 µg/mL
CO[C@@]1(NC(=O)C(NC(=O)c2cnc3nc(SC)ncc3c2O)c2ccc(O)cc2)C(=O)N2C(C(=O)O)=C(COC(N)=O)CS[C@@H]21 (stereo partly shown) [Example 18] :: 6.25 µg/mL
CO[C@@]1(NC(=O)C(NC(=O)c2cnc3cncnc3c2O)c2ccccc2)C(=O)N2C(C(=O)O)=C(CSc3nnnn3C)CS[C@@H]21 (stereo partly shown) [Example 7] :: 6.25 µg/mL
CO[C@@]1(NC(=O)C(NC(=O)c2cnc3nc(N4CCNCC4)ncc3c2O)c2ccc(O)cc2)C(=O)N2C(C(=O)O)=C(COC(N)=O)CS[C@@H]21 (stereo partly shown) [Example 25] :: 6.25 µg/mL
CO[C@@]1(NC(=O)[C@H](NC(=O)c2cnc3cccnc3c2O)c2ccccc2)C(=O)N2C(C(=O)[O-])=C(C[n+]3ccccc3)CS[C@@H]21 [Example 4] :: 6.25 µg/mL

Look at each compound and report its MIC.
1. COC1(NC(=O)C(NC(=O)c2nnc(O)nc2O)c2ccccc2)C(=O)N2C(C(=O)O)=C(COC(C)=O)CSC21 (stereo not shown) [Example 49]
2. COC1(NC(=O)C(NC(=O)c2cnc3cccnc3c2O)c2ccc(O)c(O)c2)C(=O)N2C(C(=O)O)=C(CSc3nnc(C)s3)CSC21 (stereo not shown) [Example 45]
3. CO[C@@]1(NC(=O)C(NC(=O)c2nccnc2O)c2ccc(O)cc2)C(=O)N2C(C(=O)O)=C(CSc3nnc(C)s3)CS[C@@H]21 (stereo partly shown) [Example 27]
4. COC1(NC(=O)C(NC(=O)c2nnc(SC)nc2O)c2ccccc2)C(=O)N2C(C(=O)O)=C(COC(N)=O)CSC21 (stereo not shown) [Example 51]
5. COC1(NC(=O)C(NC(=O)c2nnc(S)nc2O)c2ccccc2)C(=O)N2C(C(=O)O)=C(CSc3nnc(C)s3)CSC21 (stereo not shown) [Example 53]
6. CO[C@@]1(NC(=O)C(NC(=O)c2ncccc2O)c2ccccc2)C(=O)N2C(C(=O)[O-])=C(C[n+]3ccc(C(N)=O)cc3)CS[C@@H]21 (stereo partly shown) [Example 24]
7. COC1(NC(=O)C(NC(=O)c2nnc(O)nc2O)c2ccc(O)cc2)C(=O)N2C(C(=O)O)=C(COC(N)=O)CSC21 (stereo not shown) [Example 52]
8. COC1(NC(=O)C(NC(=O)c2cnc3ccncc3c2O)c2ccc(O)cc2)C(=O)N2C(C(=O)O)=C(CSc3nnnn3C)CSC21 (stereo not shown) [Example 38]

25 µg/mL
6.25 µg/mL
25 µg/mL
25 µg/mL
25 µg/mL
12.5 µg/mL
25 µg/mL
12.5 µg/mL

Look at each compound and report its MIC.
1. CCN(CC)c1ccc2ncc(C(=O)NC(C(=O)N[C@]3(OC)C(=O)N4C(C(=O)O)=C(CSc5cnn[nH]5)CS[C@@H]43)c3ccc(O)cc3)c(O)c2n1 (stereo partly shown) [Example 22]
2. COC1(NC(=O)C(NC(=O)c2cnc3cccnc3c2O)c2ccco2)C(=O)N2C(C(=O)O)=C(CSc3nnnn3C)CSC21 (stereo not shown) [Example 35]

3.13 µg/mL
3.13 µg/mL

Look at each compound and report its MIC.
1. COC1(NC(=O)C(NC(=O)c2cnc3scnc3c2O)c2ccc(O)cc2)C(=O)N2C(C(=O)O)=C(COC(N)=O)CSC21 (stereo not shown) [Example 30]
2. CO[C@@]1(NC(=O)C(NC(=O)c2cccnc2O)c2ccc(O)cc2)C(=O)N2C(C(=O)O)=C(COC(N)=O)CS[C@@H]21 (stereo partly shown) [Example 23]
3. CO[C@@]1(NC(=O)C(NC(=O)c2ccnnc2O)c2ccc(O)cc2)C(=O)N2C(C(=O)O)=C(CSc3n[nH]c(=S)s3)CS[C@@H]21 (stereo partly shown) [Example 14]
4. CNc1nnc(SCC2=C(C(=O)O)N3C(=O)[C@](NC(=O)C(NC(=O)c4cnc5ccc(OC)nc5c4O)c4ccc(O)c(Cl)c4)(OC)[C@H]3SC2)s1 (stereo partly shown) [Example 21]
5. COC1(NC(=O)C(NC(=O)c2cnccc2O)c2ccc(O)c(O)c2)C(=O)N2C(C(=O)O)=C(COC(N)=O)CSC21 (stereo not shown) [Example 44]
6. COC1(NC(=O)C(NC(=O)c2cnc3cccnc3c2O)c2cccc(O)c2)C(=O)N2C(C(=O)O)=C(CSc3nnc(C)s3)CSC21 (stereo not shown) [Example 31]
7. CO[C@@]1(NC(=O)C(NC(=O)c2ccnnc2O)c2ccc(O)cc2)C(=O)N2C(C(=O)O)=C(CSc3nnc(C)s3)CS[C@@H]21 (stereo partly shown) [Example 13]
8. CO[C@@]1(NC(=O)C(NC(=O)c2cnc3nc(C)ccc3c2O)c2ccc(O)cc2)C(=O)N2C(C(=O)O)=C(COC(C)=O)CS[C@@H]21 (stereo partly shown) [Example 15]

1. 6.25 µg/mL
2. 12.5 µg/mL
3. 25 µg/mL
4. 3.13 µg/mL
5. 12.5 µg/mL
6. 3.13 µg/mL
7. 25 µg/mL
8. 12.5 µg/mL

Can you share its MIC? I mean this compound: COC1(NC(=O)C(NC(=O)c2cc3ncccc3nc2O)c2ccc(O)cc2)C(=O)N2C(C(=O)O)=C(CSc3nnnn3C)CSC21 (stereo not shown) [Example 28]
3.13 µg/mL
